tested on: Human immunodeficiency virus 1; assay: Antiviral activity against HIV1 infected in HEK293T cells assessed as reduction in viral replication measured after 48 hrs post transfection by MAGI assay; format: functional, organism-based; conditions: Human immunodeficiency virus 1, HEK-293T
Recorded measurements of IC50, one per entry
Only the number, expressed in nM, is required.

| SMILES INPUT | TARGET OF ASSAY | IC50 / nM |
| --- | --- | --- |
| NCCCCN(C[C@H]1CN(S(=O)(=O)c2ccccc2)CCN1)[C@H]1CCCc2cccnc21 | Human immunodeficiency virus 1 | 20 |

The compound `NCCCCN(C[C@H]1CN(C(=O)c2ccccc2)CCN1)[C@H]1CCCc2cccnc21` showed IC50 equal to 20

---

biological target: C-X-C chemokine receptor type 4 (Homo sapiens, UniProt P61073); assay: Inhibition of CXCR4 receptor (unknown origin)
Sequence (P61073 whole entry): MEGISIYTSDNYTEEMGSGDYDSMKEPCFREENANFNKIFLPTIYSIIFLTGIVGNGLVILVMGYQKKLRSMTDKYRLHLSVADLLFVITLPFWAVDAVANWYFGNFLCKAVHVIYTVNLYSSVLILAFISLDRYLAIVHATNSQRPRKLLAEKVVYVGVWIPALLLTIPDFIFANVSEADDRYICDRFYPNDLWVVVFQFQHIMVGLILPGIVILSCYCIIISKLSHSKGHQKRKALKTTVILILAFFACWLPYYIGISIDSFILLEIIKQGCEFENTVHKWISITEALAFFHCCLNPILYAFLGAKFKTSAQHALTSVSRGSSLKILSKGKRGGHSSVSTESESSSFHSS
RECORDED ENDPOINT: IC50 (nM)
Answer in nM, number only, no unit symbol.

| COMPOUND | IC50, nM |
| --- | --- |
| CCN(CC)CCCC(C)Nc1cc(OC)cc2nc(/C=C/c3ccc([N+](=O)[O-])cc3)ccc12 (configuration not stated) | 2160 |
| CC1(C)CN2C=C(CS/C(=N/C3CCCCC3)NC3CCCCC3)SC2=N1 | 8 |
| N=C(N)NCC/C=C1\NC(=O)N(/C=C/c2ccc(O)cc2)C1=O [PARAZOANTHINE B] | 9.3 |
| N[C@@H](CCC(=O)N1CCC(Nc2nc(NCc3cn(CCCNCCCNC4CCCCC4)nn3)nc3ccccc23)CC1)C(=O)O | 40.4 |
| c1ccc(CNCc2ccc(CN3CCCNCCNCCCNCC3)cc2)nc1 | 8.7 |

Given item N=C(N)NCCC[C@@H]1NC(=O)N(/C=C/c2ccc(O)cc2)C1=O [PARAZOANTHINE A] , the value recorded as its IC50 is 18.7

Value of IC50 reported for the compound `N=C(N)NCC/C=C1\NC(=O)N(/C=C/c2cccc3ccccc23)C1=O` is 70.7

The recorded IC50 for entry `COc1ccc(/C=C/N2C(=O)N[C@@H](CCCNC(=N)N)C2=O)cc1` equals 269

So, COc1ccc(/C=C/N2C(=O)N/C(=C\CCNC(=N)N)C2=O)cc1 [PARAZOANTHINE C] ? Its IC50 was 10

IC50 measured on CC(C)N1CCCC(Cn2c(CN(C)[C@H]3CCCc4cccnc43)nc3ccccc32)C1 (some centres not stated) = 2

// field: IC50; key: `N=C(N)NCCCCCNc1noc(Cc2c[nH]c3cc(Br)ccc23)n1` ; value = 10

// recorded IC50 for `N=C(N)NCC/C=C1\NC(=O)N(/C=C/c2ccccc2)C1=O` : 116

---

target: C-X-C chemokine receptor type 4 (Homo sapiens, UniProt P61073); assay: Antagonist activity at CXCR4 (unknown origin); format: functional
Measured IC50 accompanies every entry in the list below.

| SMILES INPUT | TARGET OF ASSAY | IC50 |
| --- | --- | --- |
| c1ccc(CNCc2ccc(CNCc3ccccn3)cc2)nc1 | C-X-C chemokine receptor type 4 (Homo sapiens, UniProt P61073) | > 10 µM |

With those in mind, consider the next compound.
Per the reported C-X-C chemokine receptor type 4 (Homo sapiens, UniProt P61073) data, `c1cc(CNC2CCCCC2)ccc1CNC1CCCCC1` has IC50 of > 10 µM
